Just for reference, patent US20130089544A1 is where these values come from.

Study System: T1, human ErbB2 ECD-myc/His fusion protein (human, UniProt P04626 23-652)
T1 construct: Made in-house in 293T cells; also called hErbB2(ECD)/cMyc-His; huErbB2 (ECD)/c-myc-His; not shown: c-myc/His tag of the pSecTag2Hygro vector
Procedure Text: limited antigen ELISA, 31 ng/ml ErbB2 ECD-myc/His coated, supernatant 1:25
Observation Type: LA at 31 ng/ml (OD) (OD 450 nm)
Kindly provide the numeric value in OD 450 nm only, without the unit symbol.

Prompt line: Reported LA at 31 ng/ml (OD) for monoclonal antibody 1.100.1 (antibody, V domains shown, Fully human IgG (gamma/kappa) from a XenoMouse XM3B-3 hybridoma; constant regions not tied to it; also called 1.100.2; 1.100.3) VH: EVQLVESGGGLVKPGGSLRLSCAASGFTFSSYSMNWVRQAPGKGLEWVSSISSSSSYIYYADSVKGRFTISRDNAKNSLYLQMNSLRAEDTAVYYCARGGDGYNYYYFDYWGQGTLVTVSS VL: DIVMTQSPDSLAVSLGERATITCKSSQSVFFRSNNKNCLAWYQQRPGQPPNLLIYWASTRESGVPDRFSGSGCGTDFTLTISSLQAEDVAVYYCQQYFGSPFTFGPGTKVDIK : what is it?
Response line: 3.54
